Kindly state log10(IC50) for each of the entries shown.
Target: full length recombinant Pim-2 protein (Homo sapiens, UniProt Q9P1W9)
Construct: by full length recombinant Pim-1, Pim-2, or Pim-3 protein; hexahistidine tag followed by a thrombin cleavage site (N); made in house; host or cells: Sf9 (baculovirus) or E. coli (pET28)
Sequence (Q9P1W9 whole entry): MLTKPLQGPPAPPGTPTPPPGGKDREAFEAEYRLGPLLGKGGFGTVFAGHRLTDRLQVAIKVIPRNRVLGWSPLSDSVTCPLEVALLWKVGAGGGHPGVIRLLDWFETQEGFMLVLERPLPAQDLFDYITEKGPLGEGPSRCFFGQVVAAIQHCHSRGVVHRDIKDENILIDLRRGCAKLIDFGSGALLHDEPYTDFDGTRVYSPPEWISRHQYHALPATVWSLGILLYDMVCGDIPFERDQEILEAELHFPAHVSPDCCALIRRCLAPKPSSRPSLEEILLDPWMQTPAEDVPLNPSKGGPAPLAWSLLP
Experiment: Pim-2 enzyme assay (HTRF, phosphorylation of biotinylated-BAD (S112) peptide)
Format: biochemical
Conditions: read-out: Pim2_IC50
Method: These cDNAs were used as templates in PCR reactions to produce full-length DNA clones of the PIMs. […] This step was repeated 3× and the resin was transferred to a 2.5 cm glass column. […] Fractions were analyzed by SDS-PAGE and those containing the protein of interest were pooled and concentrated. […] The final buffer conditions were as follows: 60 mM Hepes, pH 7.0, 0.05% BSA, 2 mM DTT. […] For each plate, percent of control (POC) values were calculated for each well. […]
Hi team, quick reminder: these entries are log10 of IC50 (nM).

Examples from the recorded data:
> print(dat)
                                   compound  endpoint.result
1  c1cc2cc(-c3ccc4[nH]cc(-c5cncc(O[C@@H]6CCCNC6)n5)c4c3)cnc2[nH]1 [Example 336]             1.52
2  COc1ccc(-c2ccc3[nH]cc(-c4cncc(O[C@@H]5CCCNC5)n4)c3c2)cn1 [Example 310]             1.61
3  Fc1cccc(F)c1-c1ccc2[nH]nc(-c3cncc(OC4CCNCC45CC5)n3)c2c1 (single isomer, unassigned) [Example 430]             0.78
4  CC(C)OC(=O)c1ccc2[nH]nc(-c3cncc(NC4CCNCC4)n3)c2c1 [Example 560]             0.70
5  Nc1ccc(-c2ccc3[nH]nc(-c4cncc(O[C@H]5CNCCC56CC6)n4)c3c2)c(F)n1 [Example 466]             0.00

I need log10(IC50) for every entry listed below, if you could help.
1. N#Cc1ccc(-c2ccc3[nH]nc(-c4cncc(O[C@H]5CNCCC56CC6)n4)c3c2)c(F)c1 [Example 456]
2. CC(C)Oc1cncc(-c2ccc3[nH]cc(-c4nnc(N[C@@H]5CCCNC5)o4)c3c2)n1 [Example 518]

// result
0.48
1.99

---

target: full length recombinant Pim-2 protein (Homo sapiens); construct: by full length recombinant Pim-1, Pim-2, or Pim-3 protein; hexahistidine tag followed by a thrombin cleavage site (N); made in house; host or cells: Sf9 (baculovirus) or E. coli (pET28); assay: Pim-2 enzyme assay (HTRF, phosphorylation of biotinylated-BAD (S112) peptide); format: biochemical; conditions: enzyme assay, Pim-2; read-out: Pim2_IC50
Please use the following IC50 ranges when assigning a class: bottom = under 0.03 µM, middle = from 0.03 µM up to 0.08 µM, top = 0.08 µM and over

Solved cases below.
> print(dat)
                                   compound   class
1  NC1CCN(c2cncc(-c3n[nH]c4ccc(-c5cc(=O)[nH]cc5Cl)cc34)n2)CC1  middle
2  CC(C)(C)NC(=O)c1ccc(F)c(-c2ccc3[nH]nc(-c4cncc(O[C@@H]5CCCNC5)n4)c3c2)c1  bottom
3  O=C(NC1CC1)c1ccnc(-c2ccc3[nH]nc(-c4cncc(O[C@@H]5CCCNC5)n4)c3c2)c1  middle

// query Kindly identify the class of `Nc1ncc(-c2ccc3[nH]nc(-c4cncc(N5CCC(N)CC5)n4)c3c2)c(NC2CCCC2)n1` .
// result top

// query Classify this compound: `NC1CCN(c2nccc(-c3n[nH]c4ccc(-c5c(F)cccc5F)cc34)n2)CC1`
// result middle

// query Category lookup for the compound `COc1cncc(-c2ccc3[nH]nc(-c4cnc(N5CCC(N)CC5)s4)c3c2)c1`
// result top

// query Please let me know in which category the item `CC(C)(C)Nc1cncc(-c2n[nH]c3ccc(-c4c(F)cccc4F)cc23)n1` belongs.
// result top

// query Class (by measured IC50) for `CN1CCOc2cc(-c3ccc4[nH]nc(-c5cncc(O[C@@H]6CCCNC6)n5)c4c3)cnc21`
// result bottom

---

Target: full length recombinant Pim-2 protein (Homo sapiens)
Construct: by full length recombinant Pim-1, Pim-2, or Pim-3 protein; hexahistidine tag followed by a thrombin cleavage site (N); made in house; host or cells: Sf9 (baculovirus) or E. coli (pET28)
Experiment: Pim-2 enzyme assay (HTRF, phosphorylation of biotinylated-BAD (S112) peptide)
Assay type: biochemical
Conditions: enzyme assay, Pim-2; read-out: Pim2_IC50
Protocol: These cDNAs were used as templates in PCR reactions to produce full-length DNA clones of the PIMs. […] This step was repeated 3× and the resin was transferred to a 2.5 cm glass column. […] Fractions were analyzed by SDS-PAGE and those containing the protein of interest were pooled and concentrated. […] The final buffer conditions were as follows: 60 mM Hepes, pH 7.0, 0.05% BSA, 2 mM DTT. […] For each plate, percent of control (POC) values were calculated for each well. […]
recorded.endpoint: IC50 (nM)
Numbers only, in nM.

Examples with their reported IC50 follow.
> print(dat)
                                item.smiles  endpoint.result
1  COc1cc(-c2ccc3[nH]nc(-c4cncc(O[C@@H]5CCCNC5)n4)c3c2)ccn1               24
2  NC1CCN(c2cncc(-c3n[nH]c4ccc(-c5ccn[nH]5)cc34)n2)CC1               15
3  NC1CCN(c2cncc(-c3n[nH]c4ccc(-c5ccccc5)cc34)n2)CC1               49

// query Name the value of IC50 reported for `NC1CCN(c2cncc(-c3n[nH]c4ccc(-c5cccc(F)c5F)cc34)n2)CC1` when tested on full length recombinant Pim-2 protein (Homo sapiens).
// result 11

---

Would you kindly list IC50 for each of these compounds?
target: Pim-2 stably transfected into the U2OS human osteogenic sarcoma line (Homo sapiens); construct: expressed in transfected cells; host or cells: U2OS human osteogenic sarcoma line; experiment: Pim cell assay, phospho-BAD normalized against total BAD, U2OS stably transfected with Pim-2; format: cell-based; conditions: U2OS cells stably transfected with Pim-2, phospho-BAD; high dose […]; read-out: Pim2_Cell_IC50; further: high dose 31.6 µM
Sequence (Q9P1W9 whole entry): as above

See these solved cases before continuing.
> print(dat)
                                   compound  endpoint.result
1  NC1CCN(c2cncc(-c3n[nH]c4ccc(-c5cccnc5O)cc34)n2)CC1        > 31.6 µM
2  CC(C)Nc1cncc(-c2n[nH]c3ccc(-c4c(F)cccc4F)cc23)n1        > 31.6 µM
3  CN1CCOc2cc(-c3ccc4[nH]nc(-c5cncc(N6CCC(N)CC6)n5)c4c3)cnc21          6.76 µM

Hi, could you look up IC50 for each item in my list?
1. NC1CCN(c2cncc(-c3n[nH]c4ccc(-c5ccccc5F)cc34)n2)CC1
2. Nc1cccc(-c2ccc3[nH]nc(-c4cncc(N5CCC(N)CC5)n4)c3c2)c1
3. Fc1cccc(F)c1-c1ccc2[nH]cc(-c3cncc(OC4CCNCC4)n3)c2c1
4. NC1CCCN(c2cncc(-c3c[nH]c4ccc(-c5c(F)cccc5F)cc34)n2)C1 (centres unmarked)
5. N[C@H]1CCCN(c2cncc(-c3c[nH]c4ccc(-c5c(F)cccc5F)cc34)n2)C1
6. CCN(CC)C(=O)c1ccc(F)c(-c2ccc3[nH]nc(-c4cncc(N5CCC(N)CC5)n4)c3c2)c1
7. FC(F)(F)c1cccc(-c2ccc3[nH]nc(-c4cncc(O[C@@H]5CCCNC5)n4)c3c2)n1

// result
15 µM
7.17 µM
20.4 µM
> 31.6 µM
> 31.6 µM
7.03 µM
> 31.6 µM

Hi there! I need IC50 for each item below, if you can.
1. Nc1cc(-c2ccc3[nH]nc(-c4cncc(N5CCC(N)CC5)n4)c3c2)ccn1
2. NC1CCN(c2cncc(-c3n[nH]c4ccc(-c5cc(C(=O)N6CCOCC6)ccc5F)cc34)n2)CC1
3. NC1CCN(c2cncc(-c3n[nH]c4ccc(N5CCCC5=O)cc34)n2)CC1
4. CN1CCOc2cc(-c3ccc4[nH]nc(-c5cncc(O[C@@H]6CCCNC6)n5)c4c3)cnc21

// result
> 31.6 µM
9.84 µM
> 31.6 µM
9.24 µM

Provide each entry's IC50 from the list below.
1. NC1CCN(c2cncc(-c3n[nH]c4ccc(-c5cnc6ccccc6c5)cc34)n2)CC1
2. CS(=O)(=O)c1cccc(-c2ccc3[nH]nc(-c4cncc(N5CCC(N)CC5)n4)c3c2)c1
3. CN(c1cncc(-c2n[nH]c3ccc(-c4c(F)cccc4F)cc23)n1)C1CCCNC1 (centres unmarked)

// result
> 31.6 µM
> 31.6 µM
14.3 µM

Values from patent US9090593B2
